# maps each entry to its IC50
- target.of.assay: Full-length, GST-tagged, human CaMKIIδ (Homo sapiens)
- Construct: Full-Length, Glutathione-S-Transferase(GST)-Tagged, Human CaMKIIδ was purchased from Carna Biosciences; purchased Carna Biosciences 02-111
- Sequence (Q13557 1-478 isoform Q13557-12): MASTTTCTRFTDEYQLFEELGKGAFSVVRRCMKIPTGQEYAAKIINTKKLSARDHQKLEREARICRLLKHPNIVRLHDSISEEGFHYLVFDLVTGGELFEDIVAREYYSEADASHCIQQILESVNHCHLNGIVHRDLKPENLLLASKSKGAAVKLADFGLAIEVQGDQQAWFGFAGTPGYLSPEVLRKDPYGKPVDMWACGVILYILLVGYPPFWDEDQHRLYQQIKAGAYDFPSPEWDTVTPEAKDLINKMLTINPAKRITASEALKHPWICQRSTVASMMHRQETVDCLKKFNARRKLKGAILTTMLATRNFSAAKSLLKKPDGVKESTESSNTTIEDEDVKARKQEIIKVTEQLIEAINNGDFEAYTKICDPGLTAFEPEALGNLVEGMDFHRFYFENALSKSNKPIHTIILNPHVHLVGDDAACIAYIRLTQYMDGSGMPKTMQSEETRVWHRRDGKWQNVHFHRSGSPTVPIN
- assay.explanation: CaMKIIδ binding assay (TR-FRET with BODIPY-labeled probe ligand)
- run.parameters: CaMKIIδ binding assay; activity class per Table 2

C[C@@H](Cn1cnnn1)Oc1cc(-c2cnc(Nc3cn(C(C)(C)CO)nc3OCC(F)(F)F)nc2)ccc1Cl :: < 10 nM

Q: Tell us which IC50 value is on record for C[C@@H](Cn1cnnn1)Oc1cc(-c2cnc(Nc3cn(-c4ccc(=O)[nH]c4)nc3OCC(F)(F)F)nc2)ccc1Cl
A: < 10 nM

Q: Tell us which IC50 value is on record for C[C@@H](Cn1cnnn1)Oc1cc(-c2cnc(Nc3cn(C4CC5(C4)CN(C4(C)CCOC4)C5)nc3OCC(F)(F)F)nc2)ccc1Cl (stereo partly drawn)
A: < 10 nM

The origin of these recorded values is patent US10543212B2.
